Record form. Attribute: pIC50. Fill in for each entry.
Reminder that pIC50 means the negative base-10 logarithm of the concentration expressed in mol/L.

input: Which pIC50 is reported with OXA-48 (Klebsiella pneumoniae) for this entry: N#C[C@@H]1CC[C@@H]2CN1C(=O)N2OC(F)(F)C(=O)[O-].[Na+] ?
output: 9.15

input: Which pIC50 is reported with OXA-48 (Klebsiella pneumoniae) for this entry: NC(=O)[C@@H]1CC[C@@H]2CN1C(=O)N2OC(F)(F)C(=O)[O-].[Na+] ?
output: 7.12

###

Tested on: Klebsiella pneumoniae (KPN) isolates
Experiment: MIC of compounds alone and combined with antibacterials, broth microdilution (CLSI)
Assay type: cell-based
Conditions: KPN UFR227O; AF1 @ 4 μg/mL
Values of MIC ATB in combination strictly less than 60 µg/mL map to T, and values of at least 60 µg/mL map to F.

input: Take the compound CC(C)(O/N=C(\C(=O)N[C@@H]1C(=O)N2C(C(=O)[O-])=C(C[n+]3ccccc3)CS[C@H]12)c1csc(N)n1)C(=O)O and say whether its MIC ATB in combination is less than 60 µg/mL.
output: T

input: Take the compound CO/N=C(\C(=O)N[C@@H]1C(=O)N2C(C(=O)O)=C(COC(N)=O)CS[C@H]12)c1ccco1 and say whether its MIC ATB in combination is less than 60 µg/mL.
output: F

input: Take the compound COCC1=C(C(=O)O)N2C(=O)[C@@H](NC(=O)/C(=N\OC)c3csc(N)n3)[C@H]2SC1 and say whether its MIC ATB in combination is less than 60 µg/mL.
output: T

input: Take the compound C=CC1=C(C(=O)O)N2C(=O)[C@@H](NC(=O)/C(=N\O)c3csc(N)n3)[C@H]2SC1 and say whether its MIC ATB in combination is less than 60 µg/mL.
output: T

input: Take the compound CC1(C)S[C@@H]2[C@H](NC(=O)[C@H](N)c3ccc(O)cc3)C(=O)N2[C@H]1C(=O)O and say whether its MIC ATB in combination is less than 60 µg/mL.
output: F

input: Take the compound C=CC1=C(C(=O)O)N2C(=O)[C@@H](NC(=O)/C(=N\OCC(=O)O)c3csc(N)n3)[C@H]2SC1 and say whether its MIC ATB in combination is less than 60 µg/mL.
output: T

###

Test: Hydrolysis kinetics in buffers at 37° C., 4 μg/ml (LC-MS, Method 8)
Type: physicochemical
Details: Citrate 10 mM pH 5.0
Record form. Attribute: Hydrolysis at 4 μg/ml at 37° C. (LC-MS) T50 (50% degradation time). Fill in for each entry.

input: Could you tell me which Hydrolysis at 4 μg/ml at 37° C. (LC-MS) T50 (50% degradation time) is on file for COCC(COC)OC(=O)C(F)(F)ON1C(=O)N2C[C@H]1CC[C@H]2C(N)=O ?
output: <1 min

input: Could you tell me which Hydrolysis at 4 μg/ml at 37° C. (LC-MS) T50 (50% degradation time) is on file for COCC(C)(C)OC(=O)C(F)(F)ON1C(=O)N2C[C@H]1CC[C@H]2C(N)=O ?
output: 109 min

input: Could you tell me which Hydrolysis at 4 μg/ml at 37° C. (LC-MS) T50 (50% degradation time) is on file for CCOC(=O)C(F)(F)ON1C(=O)N2C[C@H]1CC[C@H]2C(N)=O ?
output: <1 min

input: Could you tell me which Hydrolysis at 4 μg/ml at 37° C. (LC-MS) T50 (50% degradation time) is on file for NC(=O)[C@@H]1CC[C@@H]2CN1C(=O)N2OC(F)(F)C(=O)OC1CCOCC1 ?
output: <1 min

input: Could you tell me which Hydrolysis at 4 μg/ml at 37° C. (LC-MS) T50 (50% degradation time) is on file for CCCN(CCC)[C@H]1CC[C@H](OC(=O)C(F)(F)ON2C(=O)N3C[C@H]2CC[C@H]3C(N)=O)CC1 ?
output: <1 min

input: Could you tell me which Hydrolysis at 4 μg/ml at 37° C. (LC-MS) T50 (50% degradation time) is on file for CC1(OC(=O)C(F)(F)ON2C(=O)N3C[C@H]2CC[C@H]3C(N)=O)CCOCC1 ?
output: >120 min

input: Could you tell me which Hydrolysis at 4 μg/ml at 37° C. (LC-MS) T50 (50% degradation time) is on file for COCCCC(C)(C)OC(=O)C(F)(F)ON1C(=O)N2C[C@H]1CC[C@H]2C(N)=O ?
output: <5 min

###

Test system: Providencia rettgeri (PRE) isolates
Assay: MIC of compounds alone and combined with antibacterials, broth microdilution (CLSI)
Assay type: cell-based
Details: strain PRE UFR236; antibacterial combined with AF1 @ 4 μg/mL
property: MIC ATB in combination (µg/mL)
Hi! Could you send only the number? It should be in µg/mL, unit omitted.

input: Could you tell me which MIC ATB in combination is on file for CO/N=C(\C(=O)N[C@@H]1C(=O)N2C(C(=O)O)=C(COC(N)=O)CS[C@H]12)c1ccco1 ?
output: 8

input: Could you tell me which MIC ATB in combination is on file for C=CC1=C(C(=O)O)N2C(=O)[C@@H](NC(=O)/C(=N\O)c3csc(N)n3)[C@H]2SC1 ?
output: 2

input: Could you tell me which MIC ATB in combination is on file for COCC1=C(C(=O)O)N2C(=O)[C@@H](NC(=O)/C(=N\OC)c3csc(N)n3)[C@H]2SC1 ?
output: 1

input: Could you tell me which MIC ATB in combination is on file for CC(C)(O/N=C(\C(=O)N[C@@H]1C(=O)N2C(C(=O)[O-])=C(C[n+]3ccccc3)CS[C@H]12)c1csc(N)n1)C(=O)O ?
output: 1

input: Could you tell me which MIC ATB in combination is on file for CC1(C)S[C@@H]2[C@H](NC(=O)[C@H](N)c3ccc(O)cc3)C(=O)N2[C@H]1C(=O)O ?
output: 512

input: Could you tell me which MIC ATB in combination is on file for C=CC1=C(C(=O)O)N2C(=O)[C@@H](NC(=O)/C(=N\OCC(=O)O)c3csc(N)n3)[C@H]2SC1 ?
output: 1

###

Tested on: Serratia marcescens (SMA) isolates
Test: MIC of compounds alone and combined with antibacterials, broth microdilution (CLSI)
Assay type: cell-based
Details: SMA UFR141; AF1 @ 4 μg/mL
property: MIC ATB in combination (µg/mL)
Hi! Could you send only the number? It should be in µg/mL, unit omitted.

input: Could you tell me which MIC ATB in combination is on file for C=CC1=C(C(=O)O)N2C(=O)[C@@H](NC(=O)/C(=N\OCC(=O)O)c3csc(N)n3)[C@H]2SC1 ?
output: 0.5

input: Could you tell me which MIC ATB in combination is on file for COCC1=C(C(=O)O)N2C(=O)[C@@H](NC(=O)/C(=N\OC)c3csc(N)n3)[C@H]2SC1 ?
output: 2

input: Could you tell me which MIC ATB in combination is on file for CO/N=C(\C(=O)N[C@@H]1C(=O)N2C(C(=O)O)=C(COC(N)=O)CS[C@H]12)c1ccco1 ?
output: 128

input: Could you tell me which MIC ATB in combination is on file for C=CC1=C(C(=O)O)N2C(=O)[C@@H](NC(=O)/C(=N\O)c3csc(N)n3)[C@H]2SC1 ?
output: 4

###

Record form. Attribute: MIC ATB in combination. Fill in for each entry.
System: Klebsiella pneumoniae (KPN) isolates
Assay: MIC of compounds alone and combined with antibacterials, broth microdilution (CLSI)
Format: cell-based
Conditions: KPN UFR23; AF1 @ 4 μg/mL
Hi! Could you send only the number? It should be in µg/mL, unit omitted.

input: Could you tell me which MIC ATB in combination is on file for CO/N=C(\C(=O)N[C@@H]1C(=O)N2C(C(=O)O)=C(COC(N)=O)CS[C@H]12)c1ccco1 ?
output: 4

input: Could you tell me which MIC ATB in combination is on file for CC1(C)S[C@@H]2[C@H](NC(=O)[C@H](N)c3ccc(O)cc3)C(=O)N2[C@H]1C(=O)O ?
output: 32

input: Could you tell me which MIC ATB in combination is on file for C=CC1=C(C(=O)O)N2C(=O)[C@@H](NC(=O)/C(=N\O)c3csc(N)n3)[C@H]2SC1 ?
output: 0.5

###

Molecular target: KPC-2 (Klebsiella pneumoniae, UniProt Q9F663)
Construct: made in house; host or cells: E. coli
Test: biochemical
property: pIC50
Reminder that pIC50 means the negative base-10 logarithm of the concentration expressed in mol/L.

input: Which pIC50 is reported with KPC-2 (Klebsiella pneumoniae, UniProt Q9F663) for this entry: N#C[C@@H]1CC[C@@H]2CN1C(=O)N2OC(F)(F)C(=O)[O-].[Na+] ?
output: 7.92

input: Which pIC50 is reported with KPC-2 (Klebsiella pneumoniae, UniProt Q9F663) for this entry: NC(=O)[C@@H]1CC[C@@H]2CN1C(=O)N2OC(F)(F)C(=O)[O-].[Na+] ?
output: 7.40
